Biological target: PTPN3, P26045
Sequence (P26045 505-587): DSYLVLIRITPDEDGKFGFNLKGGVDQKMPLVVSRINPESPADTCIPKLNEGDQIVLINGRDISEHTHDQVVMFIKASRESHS
Test: holdup assay
Set-up: key: below the threshold = too weak to quantify, mostly under pKd 3.1 to 4
Conditions: plain residues with an end cap or a label only (N-terminal biotin on a linker: ado-ado)
Classify as follows. Reported pKd greater than or equal to 4: 1.0. Reported pKd below: 0.0.

{"binder": "VYPNAKVELV [PDLIM4_iso2, P50479]", "qualitative.label": 0.0}
{"binder": "RRISSLESEV [GRIN2C, Q14957]", "qualitative.label": 1.0}
{"binder": "NHSSSPETTA [TRMT13, Q9NUP7]", "qualitative.label": 0.0}
{"binder": "NLSIEKETKL [ASNSD1, Q9NWL6]", "qualitative.label": 1.0}
{"binder": "EVNETDDTKM [KCNJ1, P48048]", "qualitative.label": 1.0}
{"binder": "MLSKQSESAI [FLVCR1, Q9Y5Y0]", "qualitative.label": 1.0}
{"binder": "PRAEAEDSFL [PDGFRB, P09619]", "qualitative.label": 1.0}
